Values from ChEMBL document CHEMBL5506030

- TESTED_SYSTEM: Serine/threonine-protein kinase mTOR (Homo sapiens)
- PROTOCOL_TEXT: Inhibition of mTOR (unknown origin) assessed as phosphorylation of S6
PROPERTY_NAME: pIC50
Note on pIC50: it is the negative log10 of concentration, concentration in mol/L.

"C[C@@H]1COCCN1c1nc(N2CCOC[C@@H]2C)nc2sc(-c3cccc(O)c3)nc12" has a reported pIC50 of 6.56

* * *

- TESTED_SYSTEM: Protein cereblon/Cyclin-dependent kinase 9 (Homo sapiens) (UniProt P50750+Q96SW2)
- Sequence (P50750 whole entry, looked up): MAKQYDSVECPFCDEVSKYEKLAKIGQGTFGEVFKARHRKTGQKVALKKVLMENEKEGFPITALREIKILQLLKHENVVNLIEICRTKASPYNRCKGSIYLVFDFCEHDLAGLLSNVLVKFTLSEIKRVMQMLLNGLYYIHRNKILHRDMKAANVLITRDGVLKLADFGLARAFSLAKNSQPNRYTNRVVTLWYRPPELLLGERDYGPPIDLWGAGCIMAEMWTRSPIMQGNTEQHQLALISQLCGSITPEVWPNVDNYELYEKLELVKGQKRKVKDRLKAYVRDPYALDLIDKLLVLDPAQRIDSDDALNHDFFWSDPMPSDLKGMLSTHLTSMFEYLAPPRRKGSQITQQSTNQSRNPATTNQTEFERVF
- Sequence (Q96SW2 whole entry, looked up): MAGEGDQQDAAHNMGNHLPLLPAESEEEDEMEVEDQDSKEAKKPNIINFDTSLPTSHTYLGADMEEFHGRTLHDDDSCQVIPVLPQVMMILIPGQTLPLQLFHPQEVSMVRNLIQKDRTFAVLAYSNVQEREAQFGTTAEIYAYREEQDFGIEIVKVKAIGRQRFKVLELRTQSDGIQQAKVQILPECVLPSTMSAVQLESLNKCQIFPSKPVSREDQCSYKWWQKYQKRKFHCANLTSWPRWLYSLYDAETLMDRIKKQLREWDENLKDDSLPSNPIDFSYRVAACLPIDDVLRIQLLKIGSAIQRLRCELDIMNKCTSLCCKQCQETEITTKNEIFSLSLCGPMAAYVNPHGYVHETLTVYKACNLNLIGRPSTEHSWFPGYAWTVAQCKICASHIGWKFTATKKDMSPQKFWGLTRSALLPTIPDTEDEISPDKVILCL
- PROTOCOL_TEXT: PROTAC activity at CRBN/CDK9 in human MV4-11 cells assessed as induction of CDK9 degradation by measuring maximal efficacy at 0.01 to 5 uM incubated for 6 hrs by Western blot analysis relative to control
- Assay type: cell-based
- SETTINGS: dose 0.01-5 µM
The reader will find reported Emax values listed item by item below.
Kindly provide the numeric value in % only, without the unit symbol.

Consider the worked cases shown below.
- COMPOUND: "O=C1CCC(N2C(=O)c3cccc(OCCCCn4cc(CCCCCCN5CCC(NC(=O)c6n[nH]cc6NC(=O)c6c(Cl)cccc6Cl)CC5)nn4)c3C2=O)C(=O)N1 (stereo not drawn)"
  Emax (%): 75.3
- COMPOUND: "O=C1CCC(N2C(=O)c3cccc(OCCCCn4cc(CCCCN5CCC(NC(=O)c6n[nH]cc6NC(=O)c6c(Cl)cccc6Cl)CC5)nn4)c3C2=O)C(=O)N1 (stereo not drawn)"
  Emax (%): 79.1

We now examine a further compound.
Recorded Emax (compound O=C1CCC(N2C(=O)c3cccc(OCCCCCn4cc(CCCCCN5CCC(NC(=O)c6n[nH]cc6NC(=O)c6c(Cl)cccc6Cl)CC5)nn4)c3C2=O)C(=O)N1 (stereo not drawn) ): 68.5

* * *

- TESTED_SYSTEM: Glutamate receptor ionotropic AMPA (Homo sapiens, UniProt P42261+P42262+P42263+P48058)
- PROTOCOL_TEXT: Binding affinity to AMPA receptor (unknown origin)
PROPERTY_NAME: IC50 (µM)
The reply should be a number in µM, with the unit left off.

- COMPOUND: "Cc1cnn(O)c1CC(N)C(=O)O (racemic)"
  TESTED_SYSTEM: "Glutamate receptor ionotropic AMPA (Homo sapiens, UniProt P42261+P42262+P42263+P48058)"
  QUANTITATIVE_RESULT: 2.6

Continue with the next compound.
IC50 reported for this compound Cc1nnn(O)c1CC(N)C(=O)O (stereo not drawn) : 0.13

* * *

Below, each entry is listed with its recorded log10 solubility.
- PROTOCOL_TEXT: Solubility in water
- Type: physicochemical
Remember, log10 of solubility, in µM.

// worked examples, log10 solubility included
- MOLECULE: "O=C(NC1CCNCC1)c1n[nH]cc1NC(=O)c1c(Cl)cccc1Cl"
  log10 solubility: 2.71
- MOLECULE: "O=C1CCC(N2C(=O)c3cccc(OCCCCCCCCn4cc(CCN5CCC(NC(=O)c6n[nH]cc6NC(=O)c6c(Cl)cccc6Cl)CC5)nn4)c3C2=O)C(=O)N1 (centres undefined)"
  log10 solubility: 0.75
- MOLECULE: "O=C1CCC(N2C(=O)c3cccc(OCCCCCn4cc(CCCCCN5CCC(NC(=O)c6n[nH]cc6NC(=O)c6c(Cl)cccc6Cl)CC5)nn4)c3C2=O)C(=O)N1 (centres undefined)"
  log10 solubility: 1.12
- MOLECULE: "O=C1CCC(N2C(=O)c3cccc(OCCCCn4cc(CCCCCCCCCCN5CCC(NC(=O)c6n[nH]cc6NC(=O)c6c(Cl)cccc6Cl)CC5)nn4)c3C2=O)C(=O)N1 (centres undefined)"
  log10 solubility: 0.53
- MOLECULE: "O=C1CCC(N2C(=O)c3cccc(OCCCCCn4cc(CCCCN5CCC(NC(=O)c6n[nH]cc6NC(=O)c6c(Cl)cccc6Cl)CC5)nn4)c3C2=O)C(=O)N1 (centres undefined)"
  log10 solubility: 1.09

Per the record, O=C1CCC(N2C(=O)c3cccc(OCCCCn4cc(CCCCN5CCC(NC(=O)c6n[nH]cc6NC(=O)c6c(Cl)cccc6Cl)CC5)nn4)c3C2=O)C(=O)N1 (centres undefined) has log10 solubility of 1.61

Consider O=C1CCC(N2C(=O)c3cccc(OCCCCn4cc(CCCCCN5CCC(NC(=O)c6n[nH]cc6NC(=O)c6c(Cl)cccc6Cl)CC5)nn4)c3C2=O)C(=O)N1 (centres undefined) . Its measured log10 solubility is 1.50

// sample O=C1CCC(N2C(=O)c3cccc(OCCCCn4cc(CCCCCCN5CCC(NC(=O)c6n[nH]cc6NC(=O)c6c(Cl)cccc6Cl)CC5)nn4)c3C2=O)C(=O)N1 (centres undefined) , its log10 solubility was 1.11

Lab note: measured log10 solubility of O=C1CCC(N2C(=O)c3cccc(OCCCCCCCn4cc(CCCCCCCN5CCC(NC(=O)c6n[nH]cc6NC(=O)c6c(Cl)cccc6Cl)CC5)nn4)c3C2=O)C(=O)N1 (centres undefined) was 0.67

log10 solubility recorded for this molecule, O=C1CCC(N2C(=O)c3cccc(OCCCCCCCCn4cc(CCCCCCN5CCC(NC(=O)c6n[nH]cc6NC(=O)c6c(Cl)cccc6Cl)CC5)nn4)c3C2=O)C(=O)N1 (centres undefined) , is 0.38

* * *

# reported solubility; entries follow
- PROTOCOL_TEXT: Solubility in water
- Format: physicochemical
Write the answer as a number in µg/mL, unit excluded.

- COMPOUND: "COc1ccc(OC)c2c1c(OC)cc1c(=O)cc(-c3cccc(-c4cn(CCOCCOCCOc5cccc6c5C(=O)N(C5CCC(=O)NC5=O)C6=O)nn4)c3)oc12 (centres undefined)"
  solubility, µg/mL: 206
- COMPOUND: "COc1ccc(OC)c2c1c(OC)cc1c(=O)cc(-c3cccc(-c4cnnn4CCOCCOCCOc4cccc5c4C(=O)N(C4CCC(=O)NC4=O)C5=O)c3)oc12 (centres undefined)"
  solubility, µg/mL: 262
- COMPOUND: "COc1ccc(OC)c2c1c(OC)cc1c(=O)cc(-c3cccc(-c4cn(CCCCCCOc5cccc6c5C(=O)N(C5CCC(=O)NC5=O)C6=O)nn4)c3)oc12 (centres undefined)"
  solubility, µg/mL: 0.8

// recorded solubility for COc1ccc(OC)c2c1c(OC)cc1c(=O)cc(-c3cccc(-c4cnnn4CCCCCCOc4cccc5c4C(=O)N(C4CCC(=O)NC4=O)C5=O)c3)oc12 (centres undefined) : 1.6
